B1: HSP90AB1 (parent)
chain: TLRQKAEADKNDKAVKDLVVLLFE

# Variants of: B1
# test.name: protein stability index of a GFP-peptide fusion (GPS, HEK-293T) (PSI 1-6); higher = more stable;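 note: lentivirally expressed fusions sorted by FACS into six bins by GFP to DsRed ratio, PSI derived from sequencing read proportions per bin multiplied by bin number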
# conditions.used: c terminus: a fixed tail appended
quantity.measured: protein stability index
Please respond with just the number, no unit label.

K16S : 2.92
A8W : 3.03
K13T : 2.96
K13S : 2.99

// moving on: another record for protein stability index
Recorded protein stability index for D17E , please? 2.96
